test: Toxicity evaluation using zebrafish (mortality, LC values, hatching, morphology; 3.12-400 mg/L, 96 h); settings: zebrafish (Danio rerio), in vivo
PROPERTY: LC50 at 96 h (µg/mL)
Write down the numeric answer in µg/mL and omit the unit.

Need LC50 at 96 h of O=C1O[C@H]([C@@H](O)CO)C(O)=C1O [AA, L-ascorbic acid] , thanks.
331
